Target: m-calpain (Rattus norvegicus, UniProt Q07009)
Construct: m-calpain was purified from rat brain; from tissue; host or cells: rat brain
Sequence (Q07009 20-700 limits assumed): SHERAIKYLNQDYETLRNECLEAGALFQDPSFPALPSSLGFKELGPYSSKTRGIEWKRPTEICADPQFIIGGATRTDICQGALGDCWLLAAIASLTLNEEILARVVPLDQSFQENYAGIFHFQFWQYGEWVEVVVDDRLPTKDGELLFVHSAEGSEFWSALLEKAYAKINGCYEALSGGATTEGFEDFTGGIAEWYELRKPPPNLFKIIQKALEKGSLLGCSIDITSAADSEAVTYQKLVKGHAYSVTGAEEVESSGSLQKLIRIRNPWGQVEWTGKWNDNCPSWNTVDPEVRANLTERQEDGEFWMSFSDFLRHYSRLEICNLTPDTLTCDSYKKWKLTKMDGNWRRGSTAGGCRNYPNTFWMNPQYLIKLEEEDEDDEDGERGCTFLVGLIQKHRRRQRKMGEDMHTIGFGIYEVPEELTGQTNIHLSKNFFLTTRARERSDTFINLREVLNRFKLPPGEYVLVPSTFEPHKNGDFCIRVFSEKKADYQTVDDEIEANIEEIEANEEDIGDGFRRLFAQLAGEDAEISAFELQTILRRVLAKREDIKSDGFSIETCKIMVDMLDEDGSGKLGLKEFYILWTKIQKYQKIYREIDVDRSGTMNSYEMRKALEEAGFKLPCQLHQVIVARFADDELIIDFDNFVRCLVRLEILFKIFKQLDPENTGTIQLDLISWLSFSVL
Sequence (Q64537 whole entry partner): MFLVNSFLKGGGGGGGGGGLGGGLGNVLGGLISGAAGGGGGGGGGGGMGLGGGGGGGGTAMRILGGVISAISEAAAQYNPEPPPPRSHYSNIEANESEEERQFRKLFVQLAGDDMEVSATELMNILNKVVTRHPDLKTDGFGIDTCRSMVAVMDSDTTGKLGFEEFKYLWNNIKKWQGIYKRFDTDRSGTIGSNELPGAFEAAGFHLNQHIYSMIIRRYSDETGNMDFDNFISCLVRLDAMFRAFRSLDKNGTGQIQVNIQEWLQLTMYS
Assay: Thiol protease inhibitory activity against m-calpain purified from rat brain
Format: biochemical
Settings: Table 4; rat brain enzyme; read-out: Inhibitory activity against m-calpain IC50
Description: Inhibitory activity against papain (P-3125, Sigma) and cathepsin B (C-6286, Sigma) was assayed according to the method described in a literature [Biochemical Journal, 201, 189 (1982)]. […]
Recorded measurements of IC50, one per entry
Report the figure along with its unit, number first.

Example results:
The recorded IC50 for "CC(C)C[C@H](NS(=O)(=O)c1ccccc1)C(=O)N[C@@H](C(C)C)[C@H](O)c1c(-c2ccccc2)c1=O" is 4300 nM

The recorded IC50 for "CC(C)C[C@H](NC(=O)CCc1ccccc1)C(=O)N[C@@H](C(C)C)[C@@H](O)c1c(-c2ccccc2)c1=O" is 1500 nM

The recorded IC50 for "CC(C)C[C@H](NC(=O)c1ccco1)C(=O)N[C@@H](C(C)C)[C@@H](O)c1c(-c2ccccc2)c1=O" is 880 nM

The recorded IC50 for "Cc1ccccc1C(=O)N[C@@H](CC(C)C)C(=O)N[C@@H](C(C)C)[C@@H](O)c1c(-c2ccccc2)c1=O" is 1600 nM

The recorded IC50 for "CC(C)C[C@H](NC(=O)c1ccccc1Cl)C(=O)N[C@@H](C(C)C)[C@@H](O)c1c(-c2ccccc2)c1=O" is 1100 nM

Continuing:
The recorded IC50 for "CC(C)C[C@H](NC(=O)C1CCCCC1)C(=O)N[C@@H](C(C)C)[C@@H](O)c1c(-c2ccccc2)c1=O" is 2600 nM

The recorded IC50 for "CC(C)C[C@H](NC(=O)COc1ccccc1Cl)C(=O)N[C@@H](C(C)C)[C@@H](O)c1c(-c2ccccc2)c1=O" is 1200 nM
